Sourced from patent US9113629B2

Catalogue of compounds with associated pest or weed control at 35 g/ha
# System: VERPE: bird's-eye speedwell (veronica persica)
# measurementNotes: Post-emergent Test III, herbicidal activity in wheat and barley
# Format: in vivo
# testContext: Veronica persica, post-emergence, 504 h; 35 g ai/ha; read-out: Visual Growth Reduction (%) 21 Days After Application VERPE

Reference set (4 entries):
INSERT INTO measurements (compound, testedsystem, recordedresult) VALUES
  ('COC(=O)c1nc(-c2ccc(Cl)c(F)c2)c(F)c(N)c1Cl', 'VERPE: bird''s-eye speedwell (veronica persica)', '45 to 59%'),
  ('Nc1c(F)c(-c2ccc(Cl)c(F)c2)nc(C(=O)O)c1Cl', 'VERPE: bird''s-eye speedwell (veronica persica)', '60 to 74%'),
  ('Nc1cc(-c2ccc(Br)c(F)c2F)nc(C(=O)O)c1Cl', 'VERPE: bird''s-eye speedwell (veronica persica)', '30 to 44%'),
  ('Nc1c(F)c(-c2ccc(I)cc2)nc(C(=O)O)c1Cl', 'VERPE: bird''s-eye speedwell (veronica persica)', '75 to 84%');

Now consider a different compound.
Data request: Please report the recorded pest or weed control at 35 g/ha for COC(=O)c1nc(-c2ccc(Br)c(F)c2F)cc(N)c1Cl .
Data returned: 30 to 44%

###

# System: APESV: bentgrass (Apera spica-venti)
# measurementNotes: Post-emergent Test III, herbicidal activity in wheat and barley
# Format: in vivo
# testContext: Table 9; dose for 50 percent growth reduction, probit analysis; 21 d
reportedEndpoint: GR50 APESV (g ai/ha)
Please state the figure in g ai/ha; there is no need to write the unit.

Reference set (3 entries):
INSERT INTO results (compound, recordedresult) VALUES
  ('COC(=O)c1nc(-c2ccc(I)cc2)c(Cl)c(N)c1Cl', 125),
  ('Nc1cc(-c2ccc(Br)cc2)nc(C(=O)O)c1Cl', 21),
  ('Nc1c(F)c(-c2cc(F)c(Br)cc2F)nc(C(=O)O)c1Cl', 7);

Data request: Notebook: pull reported GR50 APESV for APESV: bentgrass (Apera spica-venti), entry COC(=O)c1nc(-c2cc(F)c(I)cc2F)c(F)c(N)c1Cl
Data returned: 4

Data request: Ok, now COC(=O)c1nc(-c2cc(F)c(Br)cc2F)c(F)c(N)c1Cl
Data returned: 3

###

Catalogue of molecules with associated pest or weed control at 70 g/ha
# Tested on: Key Grass and Sedge Weeds as well as Grass Crops
# measurementNotes: Post-emergent Test II herbicidal activity (Table 6)
# Type: in vivo
# testContext: post-emergence, 336 h, CYPES: yellow nutsedge (Cyperus esculentus), 70 g ai/ha, read-out: Visual Growth Reduction (%) 14 Days After Application, CYPES
# Text: Post-emergent Test II: Seeds or nutlets of the desired test plant species were planted in Sun Gro Metro-Mix® 360 planting mixture, which typically has a pH of 6.0 to 6.8 and an organic matter content of about 30 percent, in plastic pots with a surface area of 64 square centimeters. When required to ensure good germination and healthy plants, a fungicide treatment and/or other chemical or physical treatment was applied. […]

Reference set (5 entries):
INSERT INTO results (molecule, reportedendpoint, recordedresult) VALUES
  ('COC(=O)c1nc(-c2ccc([N+](=O)[O-])cc2)c(F)c(N)c1Cl [Compound 95]', 'pest or weed control at 70 g/ha', '45 to 59%'),
  ('COC(=O)c1nc(-c2ccc(Br)cc2F)c(F)c(N)c1Cl [Compound 52]', 'pest or weed control at 70 g/ha', '95 to 100%'),
  ('COc1c(N)nc(-c2ccc(I)cc2)nc1C(=O)O [Compound 88]', 'pest or weed control at 70 g/ha', '85 to 94%'),
  ('COC(=O)c1nc(-c2ccc(F)cc2)c(F)c(N)c1Cl [Compound 204]', 'pest or weed control at 70 g/ha', '85 to 94%'),
  ('COC(=O)c1nc(-c2ccc(I)cc2)cc(N)c1Cl [Compound 158]', 'pest or weed control at 70 g/ha', '45 to 59%');

Data request: Please report the recorded pest or weed control at 70 g/ha for COC(=O)c1nc(-c2ccc(Cl)c(F)c2)c(F)c(N)c1Cl [Compound 216] .
Data returned: 85 to 94%

Data request: Ok, now COC(=O)c1nc(-c2ccc(C(F)F)cc2)c(F)c(N)c1Cl [Compound 209]
Data returned: 85 to 94%

Data request: Ok, now N#Cc1ccc(-c2nc(C(=O)O)c(Cl)c(N)c2F)cc1F [Compound 156]
Data returned: 60 to 74%

Data request: Ok, now COC(=O)c1nc(-c2ccccc2)nc(N)c1OC [Compound 175]
Data returned: 0 to 29%
